Exercise: state measured remaining activity at 10 µM for each of the compounds provided.
# MEASURED_ON: hMMP 9 (Homo sapiens, UniProt P14780)
# Construct: purchased R&D systems
# Sequence (P14780 107-707 limits assumed): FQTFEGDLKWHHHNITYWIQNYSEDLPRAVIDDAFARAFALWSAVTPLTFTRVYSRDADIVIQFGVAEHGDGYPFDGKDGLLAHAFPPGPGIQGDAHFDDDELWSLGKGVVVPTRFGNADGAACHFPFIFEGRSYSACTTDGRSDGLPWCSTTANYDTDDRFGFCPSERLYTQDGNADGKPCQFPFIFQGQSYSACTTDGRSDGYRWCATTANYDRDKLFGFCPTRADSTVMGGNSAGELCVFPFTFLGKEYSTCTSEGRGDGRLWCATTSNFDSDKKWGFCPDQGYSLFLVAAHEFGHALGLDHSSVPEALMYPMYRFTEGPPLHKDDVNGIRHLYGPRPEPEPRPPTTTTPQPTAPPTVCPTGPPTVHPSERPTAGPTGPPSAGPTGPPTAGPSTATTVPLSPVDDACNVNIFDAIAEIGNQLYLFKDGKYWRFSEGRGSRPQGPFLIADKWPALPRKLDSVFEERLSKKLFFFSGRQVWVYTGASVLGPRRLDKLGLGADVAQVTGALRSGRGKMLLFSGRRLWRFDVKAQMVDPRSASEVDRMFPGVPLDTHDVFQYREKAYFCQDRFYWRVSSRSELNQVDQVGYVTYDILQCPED
# PROCEDURE_TEXT: Residual enzyme activity of other metalloproteases
# Type: biochemical
# MEASUREMENT_CONDITIONS: 10 μM inhibitor; read-out: Residual enzyme activity MMP9
State the result as a value with its unit after it.

O=C(Cc1c(-c2ccc3c(c2)OCO3)n[nH]c1-c1ccccc1)NO ... 72%
O=C(Cc1c(-c2ccccc2)noc1-c1ccccc1)NO ... 86%
O=C(Cn1c(-c2ccccc2)ccc1-c1ccccc1)NO ... 92%
COc1cccc(-c2n[nH]c(-c3ccccc3)c2CC(=O)NO)c1 ... 80%
COc1ccc(-c2n[nH]c(-c3ccccc3)c2CC(=O)NO)cc1OC ... 90%

Okay, here is my list. What is remaining activity at 10 µM for each of these?
1. O=C(Cc1c(-c2ccccc2)nn(Cc2ccc(C(=O)O)cc2)c1-c1ccccc1)NO
2. O=C(CCc1c(-c2ccccc2)n[nH]c1-c1ccccc1)NO

[out]
80%
93%
